# experiment_description: modulators of S6 phosphorylation in cells, primary screen, cell-based, A549, cytoblot, luminescence, serum-stimulated (AID 1158);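 note: serum-stimulated A549 lung adenocarcinoma cells; signal is phosphorylated S6 detected by cytoblot immunostaining with HRP secondary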
# assay_conditions: A549 phospho-S6 cytoblot, 5 h, higher = more signal
Measured z-score values are reported for all entries that follow.
Give the value as a plain number.

# compound, numeric_value
records = [
    ("CCCC=C(CCC)[C@@H](NC(=O)c1ccc(C(F)(F)F)cc1)c1ccccc1", 1.47),
    ("CCCC[C@H]1OB(O)C[C@H]2C1=C(COC)C[C@H]1C(=O)N(Cc3ccccc3)C(=O)[C@H]12", 0.932),
    ("CCN1C(C)=C(C(=O)OC)[C@@H](c2ccccc2)N2C(=O)[C@@]3(C(=O)OC)O[C@@]12[C@@H]1C(=O)N(c2ccccc2)C(=O)[C@@H]13", 0.422),
    ("C/C(=N\\O)C(=O)NCCCCCNC(=O)OCc1ccccc1", -0.246),
]

Reported z-score of O=C1NC(=O)C2C1C=CC(C(O)C=Cc1ccc([N+](=O)[O-])cc1)N2Nc1ccccn1 (stereo not given) : -0.831

Measured z-score, CO[C@@H]1COC(=O)[C@H](C)NC(=O)CC=C[C@@H](C)[C@H](OC)COC(=O)[C@H](C)NC(=O)CC=C[C@H]1C : 0.298

What the record says about COC(=O)c1ccc(C#CC(NP(=O)(c2ccccc2)c2ccccc2)c2ccccc2)cc1 (stereo not given) : z-score is 0.806

Lab note: O=C(NCc1ccccc1)[C@@]1(Cc2ccccc2)COC(c2ccc(OCCCO)cc2)=N1 gave z-score of 0.366

Kindly note the recorded z-score for C=CCc1cccc([C@H]2N[C@H](C(=O)O)CC[C@@H]2C)c1 , which is -0.167

Entry CC(C)=C1C(=O)C(c2ccccc2)=C2CN3C(=O)N(CCc4ccccc4)C(=O)[C@]3(Cc3ccccc3)[C@H]21 , z-score reported as -0.621

* * *

# experiment_description: splicing luciferase reporter signal modulators, primary screen, spliceosome inhibition project, cell-based, HEK293, splice +/- reporter (AID 1101);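 note: HEK293 cells carrying a splicing-competent luciferase reporter gene; test concentration not given here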
# assay_conditions: luminescence, 24 h, higher = more signal, called active from +8 up or from −8 down
Label n if z-score falls below -0.8; label y in every other case.

Examples with answers:
# compound, category
records = [
    ("CC(=O)Nc1ccc([C@H]2[C@H](C)CC[C@H]3C(=O)N4[C@@H](CC[C@@H](C)[C@@H]4c4ccc(NC(C)=O)cc4)C(=O)N32)cc1", "y"),
    ("O=C(NCc1ccccc1)[C@@]1(CCS(=O)(=O)c2ccccc2)COC(c2ccc(OCCCO)cc2)=N1", "n"),
    ("CCc1cccc(NC(=O)O[C@H]2[C@H](OC(=O)Nc3ccccc3)[C@@H](OC(=O)Nc3ccccc3)[C@@H](OC)O[C@@H]2CO)c1", "y"),
    ("CO[C@H]1COC(=O)[C@@H](C)COC(=O)[C@H](Cc2ccccc2)NC(=O)CC=C[C@H]1C", "y"),
    ("C=CCNC(=O)[C@H]1[C@@H]2C(=O)O[C@@H](c3ccccc3)[C@@H](c3ccccc3)N2[C@@H](c2ccccc2OCCO)[C@]12C(=O)N(C(=O)OCCOC)c1ccc(C#CCC(C(=O)OC)C(=O)OC)cc12", "n"),
]

input: Hello, I need to know if Cc1ccc(S[C@]2(C(=O)NCCCN(C)C)CC(=O)N(Cc3ccccc3)[C@@H]2c2ccc(CO)cc2I)cc1 has measured z-score not below -0.8. Thanks!
output: n

input: Dear colleague, could you confirm whether C[C@H]1C2[C@H](Cc3ccccc3)NC(=O)[C@]23C(=O)N[C@H](Cc2ccccc2)C(=O)N[C@@H](Cc2ccccc2)C(=O)NC/C=C\C/C=C/C3[C@@H]2O[C@]12C (stereo partly drawn) has z-score at or above -0.8?
output: y

input: Evaluate CC(C)[Si]1(C(C)C)OCc2cc(C3CC3)nc(-c3ccccc3)c21 : z-score at minimum -0.8?
output: n

input: Check if z-score >= -0.8 (inclusive). Item: Cc1ccc(S[C@]2(C(=O)O)CC(=O)N(Cc3ccccc3)[C@@H]2c2ccc(CO)cc2)cc1
output: y

* * *

# experiment_description: cell viability in Huh7 cells, primary screen, cytotoxicity control for HCV replication inhibitor project, CellTiter-Glo luminescence, basal, 48 h (AID 1143);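 note: Huh7 hepatoma cells carrying a hepatitis C replication reporter with no stimulus; test concentration not given here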
# assay_conditions: Huh7 HCV replicon, higher = more signal, called active from +8 up or from −8 down
Binary call on z-score: Yes from -2 upward, No beneath that.

Consider the following illustrative entries.
# compound, category
data = [
    ("COc1ccc([C@H]2C[C@H]3C(Br)=C[C@]2(OC)C(=O)[C@]32CO2)cc1", "Yes"),
    ("CO[C@H]1O[C@H](CO)[C@@H](OC(=O)Nc2ccc(Oc3ccccc3)cc2)[C@H](OC(=O)Nc2ccccc2-c2ccccc2)[C@H]1OC(=O)Nc1ccccc1-c1ccccc1", "No"),
    ("COCCCNC(=O)[C@@H]1c2ccccc2C(=O)N(CC23CC4CC(CC(C4)C2)C3)[C@H]1c1ccc(CO)cc1", "No"),
    ("C=CCN(C(=O)C1N(c2ccc(CCO)cc2)C(=O)C2C(C(=O)O)C3C=CC21O3)C(C)(C)C (stereo not drawn)", "Yes"),
]

input: Would you say COCCOC(=O)N1C(=O)[C@@]2(c3cc(C#CCNC(N)=O)ccc31)[C@H](c1ccc(OCCO)cc1)N1[C@H](c3ccccc3)[C@H](c3ccccc3)OC(=O)[C@H]1[C@@H]2C(=O)N1CCCCCCC1 shows z-score at minimum -2?
output: No

input: Decide: is the reported value of z-score for C=CCN1C(=O)[C@@]2(Cc3ccccc3)N=C(c3ccc(OCCCO)cc3)O[C@H]2c2ccccc21 equal to or greater than -2?
output: Yes

input: Test whether the compound Cc1ccc(N2C(=O)c3ccccc3[C@](C)(C(=O)NCC(C)C)[C@@H]2c2ccc(CO)cc2)nc1 records z-score of -2 or higher.
output: Yes

* * *

# experiment_description: yeast growth modulation, basal conditions, primary screen, YJM789 clinical isolate, OD600, 24 h (AID 1089);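 note: growth of clinical yeast isolate S. cerevisiae YJM 789 seeded 1000 cells per well; test concentration not given here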
# assay_conditions: S. cerevisiae YJM789 growth, higher = more signal, called active from +8 up or from −8 down
experimental_endpoint: z-score
Reply with just the number.

Completed entries (count: 5):
# compound, z-score
data = [
    ("C=CCC(OC(C)=O)[C@@H]1[C@@H](N(Cc2cc3ccccc3o2)C(=O)Cc2ccc(F)cc2)c2cc(OCCCO)ccc2N1C(=O)c1ccc(-c2ccccc2)cc1 (stereo partly specified)", -0.277),
    ("CCCNC(=O)[C@@H]1c2ccccc2C(=O)N(Cc2cc(F)cc(C(F)(F)F)c2)[C@H]1c1ccc(CO)cc1", -1.15),
    ("COCCOC(=O)N1C(=O)[C@@]2(c3cc(C#CC4=CCCCC4)ccc31)[C@H](c1ccc(O)cc1)N1[C@H](c3ccccc3)[C@H](c3ccccc3)OC(=O)[C@H]1[C@@H]2C(=O)N1CCCCCCC1", 0.2),
    ("O=C1OCC=C[C@H]2OC34C=CCN(Cc5ccccc5)C(=O)[C@H]3N(CCO)C(=O)[C@@H]4[C@@H]12 (stereo partly specified)", -0.308),
    ("CO[C@H]1COC(=O)[C@@H](C)NC(=O)CC=C[C@@H](C)[C@H](OC)COC(=O)CC=C[C@@H]1C", -1.66),
]

get_value(item= COc1ccc([Si](C)(C)[C@@H]2[C@@H](CCO)O[C@]3(C(=O)N(Cc4ccccc4)c4ccccc43)[C@H]2C)cc1 , readout=z-score) returns 0.566

# z-score of COC(=O)C(CC#Cc1ccc2c(c1)[C@]1(C(=O)N2)[C@H](C(=O)N2CCCCCCC2)[C@H]2C(=O)O[C@H](c3ccccc3)[C@H](c3ccccc3)N2[C@@H]1c1ccc(O)cc1)C(=O)OC = -0.428

Reported z-score for CCC1=C2CN(Cc3ccccc3Br)[C@@H]([C@@H](O)Cc3ccccc3)C2C=CCC1 (stereo partly specified) was -0.828

Reported z-score of COc1cc2c(cc1OC)CN(C(=O)[C@H]1[C@@H]3C(=O)O[C@@H](c4ccccc4)[C@@H](c4ccccc4)N3[C@@H](c3ccccc3OCCO)[C@]13C(=O)Nc1ccc(C#CC4(O)CCCCCC4)cc13)CC2 : 1.71

* * *

# experiment_description: small-molecule binders of probe aNOTCH3, primary screen, biochemical, small-molecule microarray, 635/667 nm fluorescence (AID 1120);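 note: probe is a biotin-tagged antibody raised against NOTCH3 rather than NOTCH3 protein; score merges spot fluorescence near 667 nm with spot signal to noise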
# assay_conditions: higher = more signal
experimental_endpoint: composite z-score
Answer with a bare number; do not write a unit.

# chemical_smiles, composite z-score
measured = [
    ("COC(=O)[C@@]1(Cc2ccc(OC)cc2)[C@H]2c3cc(C(=O)N(C)C)n(CCc4ccc(OC)c(Br)c4)c3C[C@H]2CN1C(=O)c1ccccc1", 0.831),
    ("CCC#CCN(Cc1ccccc1Br)[C@H](/C=C/c1ccccc1)[C@@H](O)Cc1ccccc1", -0.132),
    ("Cc1ccc(S(=O)(=O)c2cc3oc2CC[C@@H](CO)NC(=O)N(C)Cc2cn(nn2)C[C@H](Cc2ccccc2)NC3=O)cc1", -0.0006),
    ("COCCOC(=O)N1C(=O)[C@@]2(c3cc(C#CCNC(N)=O)ccc31)[C@H](c1ccccc1OCCO)N1[C@H](c3ccccc3)[C@H](c3ccccc3)OC(=O)[C@H]1[C@@H]2C(=O)NC[C@H](O)c1ccccc1", 0.163),
    ("COCCOC(=O)N1C(=O)[C@@]2(c3ccccc31)[C@H](C(=O)N1CCc3cc(OC)c(OC)cc3C1)[C@H]1C(=O)O[C@H](c3ccccc3)[C@H](c3ccccc3)N1[C@@H]2c1ccccc1OCCO", 0.0556),
    ("Cc1ccc(S[C@]2(C(=O)NCCN3CCOCC3)CC(=O)N(C3Cc4ccccc4C3)[C@@H]2c2ccc(CO)cc2I)cc1", -0.0903),
]

// composite z-score lookup, molecule = Cc1ccc(S[C@]2(C(=O)NCCCN(C)C)CC(=O)N(C3CCCCC3)[C@@H]2c2ccc(CO)cc2I)cc1 , result: 0.0836

The value of composite z-score measured for the molecule C=CCc1cccc([C@@H]2[C@@H](C)CC[C@H]3C(=O)N4[C@H](c5cccc(CC=C)c5)[C@@H](C)CC[C@H]4C(=O)N23)c1 turned out to be 0.0827

This collection of values is drawn from PubChem BioAssay.
